Test system: KM12
Assay: NCI tumour cell line growth inhibition, 48 h
Calls of active or inactive are those of the source. Rule as the data show it: active = GI50 up to about 1.1 µM and inactive = higher.
Please respond with reported GI50 for every item in the list.

These solved cases illustrate the format of a correct answer.
| MOLECULE | GI50 |
| --- | --- |
| COc1cc2ccc1OCc1cccc(n1)COc1ccc(cc1OC)/C=N\CCNCCNCC/N=C\2 | > 100 µM (inactive) |
| C[C@]12C[C@H](c3ccccc3)Nc3ccccc3N1C(c1ccccc1)=NO2 | 61 µM (inactive) |
| CN(C)c1ccc(/C=C2\N=C(c3ccccc3)N(/N=C3\C(=O)Nc4ccccc43)C2=O)cc1 | 50.9 µM (inactive) |
| COC(=O)C1CCC(=S)N1C(=O)OCc1ccccc1 (stereo unspecified) | > 100 µM (inactive) |
| Oc1cc(Cl)cc2cc(Cl)cnc12 | 5.13 µM (inactive) |

Shift focus to the following entry.
Could you tell me which GI50 is on file for O=C(COC(=O)c1cccc2c(=O)c3ccccc3[nH]c12)Nc1ccc(C(=O)O)cc1 ?
47.2 µM (inactive)

---

System: LOX IMVI
Assay: NCI tumour cell line growth inhibition, 48 h
Activity calls are given as the source filed them. Rule as the data show it: active = GI50 up to about 1.1 µM and inactive = higher.
EXPERIMENTAL_ENDPOINT: GI50

| COMPOUND_STRUCTURE_STRING | GI50 |
| --- | --- |
| C[C@]12CC[C@H]3[C@@H](CC[C@]4(O)C[C@@H](O)CC[C@]34CO)[C@@]1(O)CC[C@@H]2C1=CC(=O)OC1 | 2.01 µM (inactive) |
| CCSC1=C(C)N(/C=N/C(C)(C)C)CC1 | 89.1 µM (inactive) |
| CC(C)(C)NC(=O)/C(=C\Sc1ccccc1)c1ccc2c(c1)OCO2 | 16.1 µM (inactive) |

Now examine the next entry.
Sample CCOC(=O)NC(=O)c1cn(CCN2CCN(C(=O)CCCCCCCCCCC(=O)N3CCN(CCn4cc(C(=O)NC(=O)OCC)c(=O)[nH]c4=O)CC3)CC2)c(=O)[nH]c1=O — what was its GI50?
29.3 µM (inactive)

---

Test system: SW-620
Experiment: NCI tumour cell line growth inhibition, 48 h
The source made the active and inactive calls. Cut-off read from the data, not from the text of the source: active = GI50 up to about 1.1 µM and inactive = higher.
EXPERIMENTAL_ENDPOINT: GI50

Worked set:
| MOLECULE | GI50 |
| --- | --- |
| CO[C@H]1C=C[C@]23c4cc5c(cc4CN(CC2O)[C@@H]3C1)OCO5 (some centres undefined) | 3.03 µM (inactive) |
| COc1ccc(C(O)/C(=N\NC(N)=S)c2nc3ccc([N+](=O)[O-])cc3nc2O)cc1OC (centres undefined) | > 100 µM (inactive) |
| CCCCCCCCCCn1cccc1/C=C/c1ccc(/C=C/c2cccn2CCCCCCCCCC)cc1 | > 100 µM (inactive) |

Go through the list and state GI50 for each entry.
1. N#Cc1nc(-c2cccc(-c3nc(C#N)c(N)o3)n2)oc1N
2. CCOC(=O)N/N=C(/N)Cc1ccc(Cl)cc1
3. CCC1=CC(OCc2ccccc2)C(CCN(Cc2ccccc2)C(=O)OCc2ccccc2)C1 (centres undefined)

1: > 100 µM (inactive); 2: > 100 µM (inactive); 3: 18.4 µM (inactive)

List reported GI50 for each of these molecules:
1. O=C(O)CC(NC(=O)C(F)(F)F)C(=O)NC1Cc2ccccc2OC1=O (centres undefined)
2. O=C1[C@H]2ON(c3ccccc3)C(c3cccc([N+](=O)[O-])c3)[C@H]2C(=O)N1c1ccc(Cc2ccc(N3C(=O)[C@@H]4ON(c5ccccc5)C(c5cccc([N+](=O)[O-])c5)[C@@H]4C3=O)cc2)cc1 (some centres undefined)
3. O=C(/C=C\c1cccc2ccccc12)c1cccc2ccccc12

1. > 100 µM (inactive)
2. > 100 µM (inactive)
3. 3.37 µM (inactive)

---

Test system: 786-0
Assay: NCI tumour cell line growth inhibition, 48 h
The source made the active and inactive calls. Cut-off read from the data, not from the text of the source: active = GI50 up to about 1.1 µM and inactive = higher.
Please reply with one of these outcomes: active, inactive

Reference set, count: 3
| COMPOUND | CAT |
| --- | --- |
| Cc1nc2c(=S)[nH]ncc2[nH]1 | inactive |
| Cc1ccc(S(=O)(=O)OC2=C/C(=N\c3onc(C)c3C)c3ccccc3C2=O)cc1 | inactive |
| CSc1cc(-c2ccccn2)nc(-c2ccccn2)c1 | active |

State the result this test recorded for CCC(=O)Nc1ccc(/N=C/c2cccc(Oc3ccccc3)c2)cc1 .
inactive

Now consider N#CCCN(c1ccc(/C=N/c2cccc([N+](=O)[O-])c2)cc1)S(=O)(=O)c1ccccc1 and answer again.
inactive

Same lookup for CC(C)[C@H]1NC(=O)[C@H]2N=C(O[C@@H]2C)[C@@H]2CCCN2C(=O)[C@H](Cc2ccccc2)NC(=O)[C@@H]2COC(=N2)[C@@H](Cc2ccccc2)NC(=O)[C@@H]2COC1=N2 , please.
inactive

---

Tested on: SF-268
Experiment: NCI tumour cell line growth inhibition, 48 h
Active and inactive are the calls of the source. Cut-off read from the data, not from the text of the source: active = GI50 up to about 1.1 µM and inactive = higher.
EXPERIMENTAL_ENDPOINT: GI50

// known answers, use as guide
| COMPOUND | GI50 |
| --- | --- |
| O=C(O)C(=Cc1ccnc2ccccc12)C(=O)O | > 100 µM (inactive) |
| CC(C)(C)[Si](C)(C)OCC1C=CC(n2cnc3c(N)ncnc32)O1 (stereo not given) | 83.2 µM (inactive) |
| C=CC1(c2ccc3ccccc3c2)OCC(CC)O1 (stereo not given) | 71.6 µM (inactive) |
| CN1C(=S)C(c2ccccc2)Sc2ccccc21 (stereo not given) | > 100 µM (inactive) |
| Cc1cc(S(=O)(=O)Nc2nc3ccccc3[nH]2)c(S)cc1Cl | 64.7 µM (inactive) |

Working through the 5 compounds below one at a time, give GI50 for each.
1. O=C(CCCCCCCCC(=O)OCCCn1cc(C(=O)NC(=O)OCc2ccccc2)c(=O)[nH]c1=O)OCCCn1cc(C(=O)NC(=O)OCc2ccccc2)c(=O)[nH]c1=O
2. CCCCCCCCCCCCCCCCOP(=O)(O)OP(=O)(O)OCC1OC(n2ccc(N)nc2=O)C(O)C1O (stereo not given)
3. Cc1ccc(S(=O)(=O)N[C@@H](Cc2ccccc2)C(=O)CCl)cc1 [TPCK]
4. COc1ccc(/C=N/c2ccc(-c3nc4ccccc4s3)cc2)cc1OC
5. CC(C)NC1CCCCC2c3ccccc3C12O (stereo not given)

> 100 µM (inactive)
> 100 µM (inactive)
15.7 µM (inactive)
28 µM (inactive)
> 100 µM (inactive)

---

I'd appreciate it if you could supply GI50 values for the items below.
Tested on: SF-295
Assay: NCI tumour cell line growth inhibition, 48 h
The source made the active and inactive calls. No stated cut-off is given here; in the data, active = GI50 up to about 1.1 µM and inactive = higher.

| COMPOUND | GI50 |
| --- | --- |
| O=C(O)[C@@]1(Cc2ccc(O)cc2)C[C@@H]2Cc3ccccc3N2N1 | > 100 µM (inactive) |

// for each compound in input: emit GI50
1. O=[N+]([O-])C(=C1NCCN1)/C(Cl)=C(/Cl)N1CCOCC1
2. CC(=O)Oc1ccc(C2COc3cc(OC(C)=O)c(OC(C)=O)cc3C2)cc1 (stereo unspecified)
3. CCCCCC#COC1CC(C)CC[C@@H]1C(C)C (stereo partly specified)
4. O=C1c2ccccc2C2(c3ccc(F)cc3)NCCN12 (stereo unspecified)
5. C(=C\N1CCCCC1)/c1nnnn1-c1ccccc1
6. CCCc1c(C(=O)OCC)[nH]c(-c2ccc(-c3[nH]c(C(=O)OCC)c(CCC)c3C(=O)OCC)s2)c1C(=O)OCC

1. > 100 µM (inactive)
2. 22.2 µM (inactive)
3. 39.2 µM (inactive)
4. > 100 µM (inactive)
5. 21.9 µM (inactive)
6. 27.9 µM (inactive)

Provide reported GI50 for each item, in the same order as listed.
1. CCCCCCCCCCn1cccc1/C=C/c1ccc(/C=C/c2cccn2CCCCCCCCCC)cc1
2. N#Cc1ncn(-c2ccccc2)c1N
3. Nc1nc(SCC(=O)c2ccccc2)c2[nH]cnc2n1
4. Nc1c(S(=O)(=O)O)cc(S(=O)(=O)O)c2ccc(/N=N/c3ccccc3)c(O)c12

1: > 100 µM (inactive); 2: > 100 µM (inactive); 3: > 100 µM (inactive); 4: > 100 µM (inactive)

---

Tested on: U-251
Assay: NCI tumour cell line growth inhibition, 48 h
Activity calls are given as the source filed them. Cut-off read from the data, not from the text of the source: active = GI50 up to about 1.1 µM and inactive = higher.
Valid outcomes are listed here; reply with one: TRUE (active), FALSE (inactive)

Worked set:
| COMPOUND | CAT |
| --- | --- |
| Clc1nc2n(c1/C=C/c1cccs1)CCS2 | FALSE |
| Cc1sc(/N=C/c2c[nH]c3ccccc23)c(C#N)c1C | FALSE |
| CC[n+]1c(/C=C/c2ccc(N(CCCl)CCCl)cc2)ccc2cc(I)ccc21 | TRUE |
| Cc1ccc2c3c1O[C@H]1c4[nH]c5ccccc5c4C[C@@]4(O)[C@@H](C2)N(C)CC[C@]314 | FALSE |
| CSc1cc(-c2ccccn2)nc(-c2ccccn2)c1 | TRUE |

Just curious, what result did Oc1c(CN2CCCC2)ccc2cccnc12 get here?
FALSE

Moving on to O=C(COC(=O)c1cccc2c(=O)c3ccccc3[nH]c12)Nc1ccc(C(=O)O)cc1
FALSE

Request: CCN(CC)Cc1ccc(Nc2c3ccccc3nc3ccccc23)cc1
FALSE

Follow-up item: CC[C@@H]1CN2CCC1C[C@@H]2C(O)c1ccnc2ccc(OCCN3CCN(CCOc4ccc5nccc(C(O)[C@@H]6C[C@@H]7CCN6C[C@@H]7CC)c5c4)CC3)cc12 (some centres undefined)
FALSE

One more compound: Clc1ccc(C2=NN=C3C(c4ccccc4)=Nc4ccccc4N3C2)cc1
FALSE

COc1ccc(/C=C2/C(=O)N(C(=O)c3ccccc3O)N=C2C)cc1 , same question.
TRUE

Now consider O=C(/C=C\c1cccc2ccccc12)c1cccc2ccccc12 and answer again.
FALSE

Try O=C(O)c1ccc(N/C(=C(/C(Cl)=C(Cl)Cl)[N+](=O)[O-])n2nnc3ccccc32)cc1 next.
FALSE

// same read-out, input: C1=C2C3=[N+](CCCCC3)CC2Cc2ccsc21 (centres undefined)
FALSE

Can you check COc1cc2c(cc1OC)[C@@H]1[C@H](C#N)C(=O)C(C)(C)N1CC2 next?
FALSE

Would you kindly repeat that for CC(=O)O[C@H]1CC[C@@]2(C)C(=CC[C@@H]3[C@@H]2CC[C@]2(C)c4c(cc(C#N)c(=N)n4C(C)=O)C[C@@H]32)C1 ?
FALSE
